System: Saccharomyces cerevisiae BY4741 SeMeCo community
Experiment: z-score of subpopulation abundance vs DMSO median, subpopulation auxotrophic for HL; higher = larger share of this subpopulation than in DMSO controls
Conditions: 10 µM; 24 h; SM minimal medium; subpopulation (auxotrophy): HL
Rule: z-score of subpopulation abundance under 0.6 gives 0 (no), otherwise 1 (yes).

# molecule, label-value
rows = [
    ("Fc1ccc(C(c2ccc(F)cc2)N2CCN(C/C=C/c3ccccc3)CC2)cc1 [Flunarizine 2HCl]", "1 (yes)"),
    ("COC(=O)Nc1nc2cc(C(=O)c3ccccc3)ccc2[nH]1", "0 (no)"),
    ("O=C(O)c1cccnc1Nc1cccc(C(F)(F)F)c1", "0 (no)"),
    ("CCCN1C[C@H](C)[C@@H](O)[C@](C)(O)[C@@H](CC)OC(=O)[C@H](C)[C@@H](O[C@H]2C[C@@](C)(OC)[C@@H](O)[C@H](C)O2)[C@H](C)[C@@H](O[C@@H]2O[C@H](C)C[C@H](N(C)C)[C@H]2O)[C@](C)(O)C[C@H]1C", "1 (yes)"),
    ("CO[C@@]1(NC(=O)C(C(=O)O)c2ccc(O)cc2)C(=O)N2C(C(=O)O)=C(CSc3nnnn3C)CO[C@@H]21 (some centres undefined) [Latamoxef sodium]", "0 (no)"),
    ("NC(=N\\CCCCCC/N=C(N)/N=C(\\N)Nc1ccc(Cl)cc1)/N=C(\\N)Nc1ccc(Cl)cc1 [Chlorhexidine diacetate]", "1 (yes)"),
    ("CCOC(=O)C1=C[C@]2(CC)CCCN3CCc4c(n1c1ccccc41)[C@@H]32", "0 (no)"),
    ("NC(=NCCCCCCN=C(N)N=C(N)Nc1ccc(Cl)cc1)N=C(N)Nc1ccc(Cl)cc1 [Chlorhexidine?2HCl]", "1 (yes)"),
    ("CCCc1nn(C)c2c(=O)[nH]c(-c3cc(S(=O)(=O)N4CCN(C)CC4)ccc3OCC)nc12", "0 (no)"),
]
